experiment: Toxicity controls without virus (MTT cell viability); type: cell-based; conditions: human; MRC-5 cells without 229E virus; 4.5h treatment; MTT after 5 days
Recorded Endpoint: CC50 at 4.5 h

Prompt: Could you tell me which CC50 at 4.5 h is on file for CCN(CC)CCCC(C)Nc1ccnc2cc(Cl)ccc12 (stereo not shown) ?
Response: > 264 µg/mL
